# tgt: T1, ITK SH2 domain (human, UniProt Q08881 239-338)
# T1 construct: ITK, human; source: bacterial expression, purified
# T1 sequence (looked up): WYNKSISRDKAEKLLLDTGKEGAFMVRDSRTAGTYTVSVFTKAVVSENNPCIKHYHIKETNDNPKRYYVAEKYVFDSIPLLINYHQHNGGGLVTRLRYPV
# test.name: peptide or protein array; SH2/PTB proteins spotted on aldehyde slides, rhodamine peptide titrated in buffer B (20 mM HEPES, 100 mM KCl, 0.1% Tween-20, 5 mM DTT, pH 7.8), 1 h at room temperature; replicate assays
# condition.description: both partners purified
Non-standard residues stand in square brackets, D forms with d. No end group written: not given here. pY = N[C@@H](Cc1ccc(OP(=O)(O)O)cc1)C(=O)O; Rhodamine = not defined here
measurement.type: pKd
One number for each entry, as −log10 of the molar value.

Fill in the blank: the reported pKd of Rhodamine-PLQR[pY]SEDPTVPD (reading uncertain) [ErbB2 pY1112 phosphopeptide, rhodamine-labelled, for protein microarrays] is ____.
4.28
